target-desc: hMCR-1 (Homo sapiens (Human))
measurement-protocol: Assay for agonist activity: intracellular cAMP accumulation in HBL human melanoma cells
Format: cell-based
condition-description: HBL cells, maximum efficacy compared to reference agonist NDP-α-MSH
Bridge positions count the residues as written; N and C are the ends. Square brackets hold non-standard residues; d marks the D form. Peptide text beside a SMILES is read from it. Nle = CCCC[C@H](N)C(=O)O; Dab = NCC[C@H](N)C(=O)O

# molecule, unit-tag, MC-1 Emax (average; cAMP HBL)
rows = [
    ("CCCC[C@H](NC(C)=O)C(=O)N[C@H]1CCC(=O)NCC[C@@H](C(=O)N[C@@H](Cc2c[nH]c3ccccc23)C(N)=O)NC(=O)[C@H](CCCNC(=N)N)NC(=O)[C@@H](Cc2ccccc2)NC(=O)[C@H](CCCNC(=N)N)NC1=O", "% ^", 100),
    ("CCCC[C@H](NC(C)=O)C(=O)N[C@H]1CCC(=O)NCC[C@@H](C(=O)N[C@@H](Cc2c[nH]c3ccccc23)C(N)=O)NC(=O)[C@H](CCCNC(=N)N)NC(=O)[C@@H](Cc2ccccc2)NC(=O)[C@H](Cc2c[nH]cn2)NC1=O", "% ^", 79),
    ("CCCC[C@H](NC(C)=O)C(=O)N[C@H]1CCC(=O)NCC[C@@H](C(N)=O)NC(=O)[C@H](CCCNC(=N)N)NC(=O)[C@@H](Cc2ccccc2)NC(=O)[C@H](Cc2c[nH]cn2)NC1=O [Example 9.44, Ac-Nle-cyclo(Glu-His-D-Phe-Arg-Dab)-NH2] (Ac-[Nle]EH[dF]R[Dab]-NH2; lactam 2-6)", "% ^", 85),
    ("CCCC[C@H](NC(C)=O)C(=O)N[C@H]1CCC(=O)NCC[C@@H](C(=O)N[C@@H](CCCCN)C(N)=O)NC(=O)[C@H](CCCNC(=N)N)NC(=O)[C@@H](Cc2ccccc2)NC(=O)[C@H](Cc2c[nH]cn2)NC1=O [Example 9.52] (Ac-[Nle]EH[dF]R[Dab]K-NH2; lactam 2-6)", "% ^", 91),
    ("CCCC[C@H](NC(C)=O)C(=O)N[C@H]1CCC(=O)NCC[C@@H](C(=O)N[C@@H](Cc2c[nH]c3ccccc23)C(N)=O)NC(=O)[C@H](CCCNC(=N)N)NC(=O)[C@@H](Cc2ccccc2)NC(=O)[C@H](CCCNC(N)=O)NC1=O", "% ^", 97),
]

----------
target-desc: hMCR-1 (Homo sapiens (Human), UniProt Q01726)
Sequence (Q01726 whole entry): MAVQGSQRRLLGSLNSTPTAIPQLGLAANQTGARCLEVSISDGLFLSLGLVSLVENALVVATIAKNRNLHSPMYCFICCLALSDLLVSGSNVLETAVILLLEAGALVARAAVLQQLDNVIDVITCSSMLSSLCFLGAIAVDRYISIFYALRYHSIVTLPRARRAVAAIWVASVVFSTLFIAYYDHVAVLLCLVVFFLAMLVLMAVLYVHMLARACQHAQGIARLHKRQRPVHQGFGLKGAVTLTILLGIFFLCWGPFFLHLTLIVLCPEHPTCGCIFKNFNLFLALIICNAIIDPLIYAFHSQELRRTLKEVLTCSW
measurement-protocol: Assay for agonist activity: intracellular cAMP accumulation in HBL human melanoma cells
condition-description: HBL cells expressing hMCR-1, averaged, read-out: MC-1 EC50 (average; cAMP HBL)
pEC50: −log10 of the molar value. Bridge positions count the residues as written; N and C are the ends. Square brackets hold non-standard residues; d marks the D form. Peptide text beside a SMILES is read from it. dPhe(3-Cl) = N[C@H](Cc1cccc(Cl)c1)C(=O)O; dPhe(4-Cl) = N[C@H](Cc1ccc(Cl)cc1)C(=O)O; Nle = CCCC[C@H](N)C(=O)O; Orn = NCCC[C@H](N)C(=O)O; Dab = NCC[C@H](N)C(=O)O; Dap = NC[C@H](N)C(=O)O
Lab note: anything with pEC50 at or over 9 counts as true (1); the rest go in false (0).

# compound, target-desc, classification
records = [
    ("CCCC[C@H](NC(C)=O)C(=O)N[C@H]1CCC(=O)NCC[C@@H](C(N)=O)NC(=O)[C@H](CCCNC(=N)N)NC(=O)[C@@H](Cc2ccc(Cl)cc2)NC(=O)[C@H](CCCN)NC1=O [Example 9.59] (Ac-[Nle]E[Orn][dPhe(4-Cl)]R[Dab]-NH2; lactam 2-6)", "hMCR-1 (Homo sapiens (Human), UniProt Q01726)", "true (1)"),
    ("N=C(N)NCCC[C@@H]1NC(=O)[C@@H](Cc2ccccc2)NC(=O)[C@H](Cc2c[nH]cn2)NC(=O)[C@@H](NC(=O)CC2CCCC2)CCC(=O)NCC[C@@H](C(=O)N[C@@H](Cc2c[nH]c3ccccc23)C(N)=O)NC1=O [Example 9.21]", "hMCR-1 (Homo sapiens (Human), UniProt Q01726)", "true (1)"),
    ("CCCC[C@H](NC(C)=O)C(=O)N[C@H]1CCC(=O)NCC[C@@H](C(N)=O)NC(=O)[C@H](C)NC(=O)[C@@H](Cc2ccccc2)NC(=O)[C@H](Cc2c[nH]cn2)NC1=O [Example 9.33, Ac-Nle-cyclo(Glu-His-D-Phe-Ala-Dab)-NH2] (Ac-[Nle]EH[dF]A[Dab]-NH2; lactam 2-6)", "hMCR-1 (Homo sapiens (Human), UniProt Q01726)", "false (0)"),
    ("CCCC[C@H](NC(C)=O)C(=O)N[C@H]1CCC(=O)NCC[C@@H](C(=O)N[C@@H](C)C(N)=O)NC(=O)[C@H](CCCNC(=N)N)NC(=O)[C@@H](Cc2ccccc2)NC(=O)[C@H](Cc2c[nH]cn2)NC1=O [Example 9.25] (Ac-[Nle]EH[dF]R[Dab]A-NH2; lactam 2-6)", "hMCR-1 (Homo sapiens (Human), UniProt Q01726)", "true (1)"),
    ("CCCC[C@H](NC(C)=O)C(=O)N[C@H]1CCC(=O)NCC[C@@H](C(=O)N[C@@H](CCCCN)C(N)=O)NC(=O)[C@H](CCCNC(=N)N)NC(=O)[C@@H](Cc2ccccc2)NC(=O)[C@H](Cc2c[nH]cn2)NC1=O [Example 9.39] (Ac-[Nle]EH[dF]R[Dab]K-NH2; lactam 2-6)", "hMCR-1 (Homo sapiens (Human), UniProt Q01726)", "true (1)"),
    ("CCCC[C@H](NC(C)=O)C(=O)N[C@H]1CCC(=O)NCC[C@@H](C(=O)N[C@@H](Cc2c[nH]c3ccccc23)C(N)=O)NC(=O)CNC(=O)[C@@H](Cc2ccccc2)NC(=O)[C@H](Cc2c[nH]cn2)NC1=O [Example 9.34] (Ac-[Nle]EH[dF]G[Dab]W-NH2; lactam 2-6)", "hMCR-1 (Homo sapiens (Human), UniProt Q01726)", "false (0)"),
    ("CCCC[C@H](NC(C)=O)C(=O)N[C@H]1CCC(=O)NCC[C@@H](C(N)=O)NC(=O)[C@H](CCCNC(=N)N)NC(=O)[C@@H](Cc2ccccc2)NC(=O)[C@H](Cc2c[nH]cn2)NC1=O [Example 9.32, Ac-Nle-cyclo(Glu-His-D-Phe-Arg-Dab)-NH2] (Ac-[Nle]EH[dF]R[Dab]-NH2; lactam 2-6)", "hMCR-1 (Homo sapiens (Human), UniProt Q01726)", "true (1)"),
    ("CCCC[C@H](NC(C)=O)C(=O)N[C@H]1CCC(=O)NCC[C@@H](C(=O)N[C@@H](Cc2c[nH]c3ccccc23)C(N)=O)NC(=O)[C@H](C)NC(=O)[C@@H](Cc2ccccc2)NC(=O)[C@H](Cc2c[nH]cn2)NC1=O [Example 9.35] (Ac-[Nle]EH[dF]A[Dab]W-NH2; lactam 2-6)", "hMCR-1 (Homo sapiens (Human), UniProt Q01726)", "true (1)"),
    ("CCCC[C@H](NC(C)=O)C(=O)N[C@H]1CC(=O)NC[C@@H](C(=O)N[C@@H](Cc2c[nH]c3ccccc23)C(N)=O)NC(=O)[C@H](CCCNC(=N)N)NC(=O)[C@@H](Cc2ccccc2)NC(=O)[C@H](Cc2c[nH]cn2)NC1=O [Example 9.4] (Ac-[Nle]DH[dF]R[Dap]W-NH2; lactam 2-6)", "hMCR-1 (Homo sapiens (Human), UniProt Q01726)", "true (1)"),
    ("CCCC[C@H](NC(C)=O)C(=O)N[C@H]1CCC(=O)NCC[C@@H](C(N)=O)NC(=O)[C@H](CCCNC(=N)N)NC(=O)[C@@H](Cc2cccc(Cl)c2)NC(=O)[C@H](CCCN)NC1=O [Example 9.58] (Ac-[Nle]E[Orn][dPhe(3-Cl)]R[Dab]-NH2; lactam 2-6)", "hMCR-1 (Homo sapiens (Human), UniProt Q01726)", "false (0)"),
    ("CCCC[C@H](NC(C)=O)C(=O)N[C@H]1CCC(=O)NCC[C@@H](C(N)=O)NC(=O)[C@H](CCCNC(=N)N)NC(=O)[C@@H](Cc2ccc(OC)cc2)NC(=O)[C@H](CCCN)NC1=O [Example 9.64] (Ac-[Nle]E[Orn][dY](Me)R[Dab]-NH2; lactam 2-6)", "hMCR-1 (Homo sapiens (Human), UniProt Q01726)", "true (1)"),
]
